B1: AnkB_AI-b (aa 865–896) [human] / AnkB 28–847 (MBD + partial AI-c) [human] (parent complex)
chain 1: EDLKELGDDSLPSSQFLDGMNYLRYSLEGGRS
chain 2: KSDSNASFLRAARAGNLDKVVEYLKGGIDINTCNQNGLNALHLAAKEGHVGLVQELLGRGSSVDSATKKGNTALHIASLAGQAEVVKVLVKEGANINAQSQNGFTPLYMAAQENHIDVVKYLLENGANQSTATEDGFTPLAVALQQGHNQAVAILLENDTKGKVRLPALHIAARKDDTKSAALLLQNDHNADVQSKMMVNRTTESGFTPLHIAAHYGNVNVATLLLNRGAAVDFTARNGITPLHVASKRGNTNMVKLLLDRGGQIDAKTRDGLTPLHCAARSGHDQVVELLLERGAPLLARTKNGLSPLHMAAQGDHVECVKHLLQHKAPVDDVTLDYLTALHVAAHCGHYRVTKLLLDKRANPNARALNGFTPLHIACKKNRIKVMELLVKYGASIQAITESGLTPIHVAAFMGHLNIVLLLLQNGASPDVTNIRGETALHMAARAGQVEVVRCLLRNGALVDARAREEQTPLHIASRLGKTEIVQLLLQHMAHPDAATTNGYTPLHISAREGQVDVASVLLEAGAAHSLATKKGFTPLHVAAKYGSLDVAKLLLQRRAAADSAGKNGLTPLHVAAHYDNQKVALLLLEKGASPHATAKNGYTPLHIAAKKNQMQIASTLLNYGAETNIVTKQGVTPLHLASQEGHTDMVTLLLDKGANIHMSTKSGLTSLHLAAQEDKVNVADILTKHGADQDAHTKLGYTPLIVACHYGNVKMVNFLLKQGANVNAKTKNGYTPLHQAAQQGHTHIINVLLQHGAKPNATTANGNTALAIAKRLGYISVVDTLKVVTEEVTTTTTTITEKHKLNVPETMTEVLDVSD

variants of: B1; assay: ITC; parent: 2.7e+03 nM
measure.name: Kd (µM)
The reply should contain only the number, in µM.

Query: Record request: Kd value, item chain 2 I240Q, chain 2 L273Q
Response: 8.5
